Measured Target: rh beta tryptase (Homo sapiens, UniProt P20231)
Construct: purchased Promega
Sequence (P20231 31-275): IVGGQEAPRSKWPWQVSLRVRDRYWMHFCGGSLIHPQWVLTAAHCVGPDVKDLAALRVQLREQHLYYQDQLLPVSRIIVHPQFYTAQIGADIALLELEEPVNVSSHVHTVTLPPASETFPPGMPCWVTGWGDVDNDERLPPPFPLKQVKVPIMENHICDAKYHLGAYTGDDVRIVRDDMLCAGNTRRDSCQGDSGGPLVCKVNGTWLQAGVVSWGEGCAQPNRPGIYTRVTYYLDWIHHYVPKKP
Test: Tryptase inhibition test (cleavage of N-p-tosyl-Gly-Pro-Lys-para-nitroaniline, p-nitroaniline measured at 405 nm)
Format: biochemical
Setup Conditions: inhibition of rh beta tryptase at 10 μM test substance; substrate N-p-tosyl-Gly-Pro-Lys-para-nitroaniline 0.6 mM, pH 7.4, 37° C., 5 minutes
For each of the molecules below, state its inhibition at 10 µM.
Note: unit % is implicit; provide only the numeric part.

Fill in the blank: the reported inhibition at 10 µM of N=C(N)c1ccc(CCc2nc3cc(C(=O)N(Cc4ccc(CN)cc4)Cc4ccccc4F)ccc3n2CCCNC(=O)Cc2ccccc2)cc1 [Example 216] is ____.
65

Item under review: COc1cccc(CN(Cc2ccc(CN)cc2)C(=O)c2ccc3c(c2)nc(CCc2ccc(C(=N)N)cc2)n3CCc2ccc(Cl)cc2)c1 [Example 76] . Reported inhibition at 10 µM?
58

Would you mind telling me what inhibition at 10 µM value was observed for CCCCN(CCCC)CCCn1c(CCc2ccc(C(=N)N)cc2)nc2cc(C(=O)N(Cc3ccccc3)Cc3ccc(CN)cc3)ccc21 [Example 103] ?
60

###

Provide the recorded IC50 for the entries that follow.
Entry rule: numbers only, all in nM.

What value of IC50 on rh beta tryptase (Homo sapiens) does `CCOCCCn1c(CCc2ccc(C(=N)N)cc2)nc2cc(C(=O)N(Cc3ccc(CN)cc3)CC3CCCCC3)ccc21` have?
292

Checklist item: IC50 tested on rh beta tryptase (Homo sapiens), entry `Cn1c(CCc2ccc(C(=N)N)cc2)nc2cc(C(=O)N(CCC(c3ccccc3)c3ccccc3)Cc3ccc(C(=N)N)cc3)ccc21` , value?
107

Hello, I am looking for reported IC50 with rh beta tryptase (Homo sapiens) for `CCOCCCn1c(CCc2ccc(C(=N)N)cc2)nc2cc(C(=O)N(CCCc3ccccc3)Cc3ccc(CN)cc3)ccc21` . Could you help?
274

Lab note: need IC50 with rh beta tryptase (Homo sapiens) for entry `CCOCCCn1c(CCc2ccc(C(=N)N)cc2)nc2cc(C(=O)N(CCN)CCCc3ccccc3)ccc21` , please look it up.
169

###

Please respond with reported IC50 for every item in the list.
// return numeric value only (unit: nM, not printed)

Param readout = IC50; param system = rh beta tryptase (Homo sapiens, UniProt P20231); param query = Cn1c(CCc2ccc(C(=N)N)cc2)nc2cc(C(=O)N(CCN)C3CCCCC3)ccc21 [Example 37] ; response: value
68

Please tell me: IC50 of CN(Cc1cccnc1)C(=O)c1ccc2c(c1)nc(CCc1ccc(C(=N)N)cc1)n2C [Example 1] , system rh beta tryptase (Homo sapiens, UniProt P20231)?
887

Could you share what IC50 was measured for Cn1c(CCc2ccc(C(=N)N)cc2)nc2cc(C(=O)N(CCNCc3ccccc3)C3CCCCC3)ccc21 [Example 36] , tested on rh beta tryptase (Homo sapiens, UniProt P20231)?
67

Look up IC50 with rh beta tryptase (Homo sapiens, UniProt P20231) for this molecule: Cn1c(CCc2ccc(C(=N)N)cc2)nc2cc(C(=O)N(CCC(=N)N)Cc3cnc4ccccc4c3)ccc21 [Example 8]
201

###

Please respond with reported melting point for every item in the list.
Counter-ions that a name gives are not always drawn.

Look at this compound and give its reported melting point. Cn1c(CCc2ccc(C(=N)N)cc2)nc2cc(C(=O)N(CCC(=N)N)C3CCCCCCC3)ccc21 (as salt: hydrochloride)
200 to 210 °C

For CN(C(=O)c1ccc2c(c1)nc(CCc1ccc(C(=N)N)cc1)n2C)c1cccnc1 (as salt: hydrochloride) , what is its reported melting point?
> 220 °C

Could you share which melting point value was measured for Cn1c(CCc2ccc(C(=N)N)cc2)nc2cc(C(=O)NC(Cc3ccc(C(=N)N)cc3)C(=O)O)ccc21 (stereo not shown) ?
165 °C

Using the record for `Cl.Cl.Cl.Cn1c(CCc2ccc(CN)cc2)nc2cc(C(=O)NCCNc3ccccc3)ccc21` , report its melting point.
> 220 °C

Give the measured melting point of CN(Cc1cccnc1)C(=O)c1ccc2c(c1)nc(CCc1ccc(C(=N)N)cc1)n2C (as salt: hydrochloride) .
> 220 °C

Reported melting point, compound CN(C)CCN(C)C(=O)c1ccc2c(c1)nc(CCc1ccc(C(=N)N)cc1)n2C (as salt: hydrochloride) : ____
> 220 °C

Reported melting point, compound Cn1c(CCc2ccc(C(=N)N)cc2)nc2cc(C(=O)N(CCC(=N)N)CCc3ccccc3)ccc21 (as salt: hydrochloride) : ____
185 to 190 °C

I have this compound here, Cn1c(CCc2ccc(C(=N)N)cc2)nc2cc(C(=O)N(CCC(=N)N)Cc3cccnc3)ccc21 (as salt: hydrochloride) , and I need its recorded melting point.
225 to 228 °C

Tell me the measured melting point of Cn1c(CCc2ccc(C(=N)N)cc2)nc2cc(C(=O)NCCC(c3ccccc3)c3ccccc3)ccc21 (as salt: hydrochloride) , please.
185 °C

# melting point lookup, item `Cl.Cl.Cn1c(CCc2ccc(C(=N)N)cc2)nc2cc(C(=O)N(CCN(Cc3ccccc3)Cc3ccccc3)C3CCCCC3)ccc21`
140 to 148 °C

Requested field: melting point. Item: CC(=O)NCCCCC(NC(=O)c1ccc2c(c1)nc(CCc1ccc(C(=N)N)cc1)n2C)C(=O)O (stereo not shown) (as salt: formate)
158 °C

Recorded melting point of CC(C)N(CCC(=N)N)C(=O)c1ccc2c(c1)nc(CCc1ccc(C(=N)N)cc1)n2C (as salt: hydrochloride) , please.
195 to 200 °C

Fill in the blank: the reported melting point of Cn1c(CCc2ccc(CN)cc2)nc2cc(C(=O)N(CCC(c3ccccc3)c3ccccc3)Cc3ccc(CN)cc3)ccc21 (as salt: hydrochloride) is ____.
140 °C

src = patent US6512000B1
